assay: NCI Yeast Anticancer Drug Screen. Data for the mlh1 rad18 strain (AID 175); settings: S. cerevisiae mlh1 rad18 strain growth inhibition; at 50.0 µM; stronger effect = higher value
The panel holds about 79,000 compounds, 15% with a hit somewhere; the sample as a whole holds those more often. Activity calls are given as the source filed them. Cut-off read from the data, not from the text of the source: active = growth inhibition above about 70%; inactive = the rest.
Measurement Name: growth inhibition

[
  {
    "Compound": "CCCCSc1nc2c(=O)[nH][nH]c(=O)c2n1Cc1ccccc1",
    "Result": "1.5% (inactive)"
  },
  {
    "Compound": "S=c1nc(NCc2ccccc2)[nH]c2[nH]ncc12",
    "Result": "-2.55% (inactive)"
  },
  {
    "Compound": "O=C(Nc1nc(=S)c2c(ncn2CCO)[nH]1)c1ccccc1",
    "Result": "-0.7% (inactive)"
  },
  {
    "Compound": "CCN1C(=O)/C(=C/c2cc([N+](=O)[O-])ccc2OCC(=O)O)SC1=S",
    "Result": "1.4% (inactive)"
  },
  {
    "Compound": "Oc1c(Cl)cccc1CN1CCOCC1",
    "Result": "33% (inactive)"
  },
  {
    "Compound": "Cc1cc(N(CCC#N)CCC#N)ccc1/C=C(\\NC(=O)/C=C/c1ccccc1)C(=O)N=[N+]=[N-]",
    "Result": "-7.2% (inactive)"
  },
  {
    "Compound": "C[N+]1(C)CCCC(OC(=O)C(O)(c2ccccc2)c2ccccc2)C1 (configuration not stated)",
    "Result": "27.7% (inactive)"
  },
  {
    "Compound": "Nc1nc2ccc(Br)cc2s1",
    "Result": "32.4% (inactive)"
  },
  {
    "Compound": "O=C(Nc1ccccc1)N1CCC[C@@H]2CCCC[C@@H]21",
    "Result": "-4.45% (inactive)"
  },
  {
    "Compound": "O=C(O)/C=C/C(=O)Nc1cc2c(cc1Br)-c1ccccc1C2O (configuration not stated)",
    "Result": "34% (inactive)"
  },
  {
    "Compound": "Cc1ccccc1NC(=O)CS",
    "Result": "33.2% (inactive)"
  },
  {
    "Compound": "Cc1cc(NC(=O)NC(=O)c2ccccc2NC(=O)CN)ccc1Oc1ncc(Br)cn1",
    "Result": "-43.5% (inactive)"
  }
]
